Cited source: BigSolDB 2.1

condition: in chloroform, 314.15 K
measured.parameter: solubility (mole fraction)
Lab note: jot the number down without any unit.

Report solubility (mole fraction) for Brc1sc(Br)c(Br)c1Br
0.066

---

condition: in chloroform, 310.15 K
measured.parameter: solubility (mole fraction)
Lab note: jot the number down without any unit.

Indicate its recorded solubility (mole fraction); the molecule in question is Brc1sc(Br)c(Br)c1Br
0.0588

---

condition: in chloroform, 282.15 K
measured.parameter: solubility (mole fraction)
When you answer, write just the number.

Retrieve solubility (mole fraction) measured for Brc1sc(Br)c(Br)c1Br and print it.
0.0231

---

condition: in chloroform, 278.15 K
measured.parameter: solubility (mole fraction)
Just the number, please, no unit after it.

For the compound Brc1sc(Br)c(Br)c1Br , give its measured solubility (mole fraction) value.
0.0198
